Endpoint: pKi. System: Sodium-dependent serotonin transporter (Homo sapiens, UniProt P31645). Items follow.
Sequence (P31645 whole entry): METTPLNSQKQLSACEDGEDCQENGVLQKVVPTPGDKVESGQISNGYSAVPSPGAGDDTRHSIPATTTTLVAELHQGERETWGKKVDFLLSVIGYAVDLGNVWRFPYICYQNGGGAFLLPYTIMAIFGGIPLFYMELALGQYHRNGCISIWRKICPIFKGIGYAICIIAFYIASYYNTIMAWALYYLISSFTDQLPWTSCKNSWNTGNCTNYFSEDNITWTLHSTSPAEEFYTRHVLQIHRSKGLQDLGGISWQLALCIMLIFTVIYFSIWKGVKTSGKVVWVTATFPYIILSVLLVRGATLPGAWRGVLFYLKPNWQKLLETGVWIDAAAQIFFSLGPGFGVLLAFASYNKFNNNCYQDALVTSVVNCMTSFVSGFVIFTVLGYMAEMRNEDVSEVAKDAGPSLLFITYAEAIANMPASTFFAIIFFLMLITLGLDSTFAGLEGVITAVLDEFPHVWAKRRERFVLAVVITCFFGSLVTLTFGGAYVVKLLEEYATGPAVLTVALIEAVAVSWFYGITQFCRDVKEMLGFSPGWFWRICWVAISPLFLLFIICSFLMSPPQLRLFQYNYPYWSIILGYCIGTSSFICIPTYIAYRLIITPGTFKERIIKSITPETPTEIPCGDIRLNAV
pKi: −log10 of the molar value.

{"MOLECULAR STRING": "Cc1ccccc1S[C@@H](c1ccccc1)[C@@H]1CNCCO1", "pKi": 7.83}
{"MOLECULAR STRING": "Cc1ccccc1O[C@@H](c1ccccc1)[C@@H]1CNCCO1", "pKi": 7.03}
{"MOLECULAR STRING": "FCCCc1ccccc1O[C@@H](c1ccccc1)[C@@H]1CNCCO1", "pKi": 6.33}

* * *

Organism: Homo sapiens
Test: Selectivity for human NET over human DAT

{"MOLECULAR STRING": "Cc1ccccc1O[C@@H](c1ccccc1)[C@@H]1CNCCO1", "Ratio Ki": 321}
{"MOLECULAR STRING": "Cc1ccccc1S[C@@H](c1ccccc1)[C@@H]1CNCCO1", "Ratio Ki": 917}
{"MOLECULAR STRING": "FCCc1ccccc1O[C@@H](c1ccccc1)[C@@H]1CNCCO1", "Ratio Ki": "> 2000"}
{"MOLECULAR STRING": "FCCCc1ccccc1O[C@@H](c1ccccc1)[C@@H]1CNCCO1", "Ratio Ki": "> 2000"}
